test: yeast display, Sf9 membrane polyspecificity reagent, FACS + sequencing; frameworks hold sequencing errors
RECORDED_ENDPOINT: polyreactivity (PSR sort gate)

• QVQLVESGGGLVQAGGSLRLSCAASGYIFTFYTMGWYRQEPGKERDLVAAISQTGGRTYYADSVKGRFTISRDNAKNTVYLEMNSLKPEDTAVYYCAARSKRLAHDYWGQGTQVTVSS = high polyreactivity
• QVQLVESGGGLVQAGGSLRLSCAASGRIFKYYAMGWYRQAPGKERELVAAITYSGGSTYADSVKGRFTISRDNAKNTVYLQMNSLKPEDTAVYYCAVARRSRVVSSIRGDYWGQGTQVTVSS = high polyreactivity

* * *

assay: yeast display, Sf9 membrane polyspecificity reagent, FACS + sequencing; frameworks hold sequencing errors
RECORDED_ENDPOINT: polyreactivity (PSR sort gate)

• QEQLVESGGGLVQAGGTLRLSSAASVNTISPNAMGWYRQPPGKERELVAAIDSRDGIRYYADSVKGRFTISRDNAKNTVYLQMNSLKPEDTAVYYCAPDEWYGESNYWGQGTQVTVSS = low polyreactivity
• QVQLVESGGGIVQAGGSLRISCAASRRTYFFNDMGWYRQAPGKERELVAAIGWSTVTTYYADSVKGRFTISRDNAKYTVYFQMISLKPEDTAVYYCAADADGWYSPYDYWGQGSQVTVSS = high polyreactivity
• QVQLVESGGGLVQAGGSLRLSCAASGSTFGGYAMGWYRQAPGKERELVATITGGGSTNYADSVKGRFTISRDNAKNTVYLQMNSLKPEDTAVYYCAATEKYQYKVYYDPVGAYDYWGQGTQVTVST = low polyreactivity
• QFQLVESWGGLVQAGGSLRLSCAASGTMGWYRQAPVKERELVAAISQSGGSTYYADSVKGRFTISRDNAKNTVYLQMNSLKPEDTAVYYCAVDPLYGDPRRDYWGQGTQVTVSS = low polyreactivity
• QVQLVESGGGLVQAGGSLRLSCSASGSIFGFYAMGWYRQEPGKERELVAAIDSGDSTNYADSVKGRFTISRDNAKNTVYLQMNSLKPEDTAVYYCNARYTLFARYGYDYWGQGTQVTVSS = low polyreactivity
• QVQLVESGGGLVQAGGSLRLSCAASGFTFVRNAMGWYRQAPGKERELVAAISDRGGTYYADSVKGRFTISRDNAKNTVYLQMNSLKPEDTAVYYCAAKYWYPYQYSHGSFYYWGQVTQVTVSS = high polyreactivity
• QVQLVESGEGLVQAGGSLRLSCAASGRIFYSNDMGWYRQAPGKEREFVAAITDSGGSTYYADSVKGRFTISRDNAKNTVYLQMNSLKPEDTAGYYCAKRQYQSYIRGPYYYWGQGTQVNVSS = low polyreactivity
• QVQHVESGGGLVQAGGSLRLSCAASGSTFTSYALGWYRQAPGKERELVAAISKSGGSTYYADSVKGRFTISRDNAKNTVYLQMNSLKPEDTSVYYCAASYNVRSYSTSRFDYWGQGTQVTVSS = low polyreactivity
• QVQLVESGGGLVQAGGSLRLSCAASGRTFLWNAMGWYRQAPGKERELVAAIRGGTITYYADSVKGRFTISRDNAKNTVYLQMNSLKPEDTAVYYCAATSARGQYYWYCFNGYPYSEFGYWGQGTQVTVSS = low polyreactivity
• QVQLVESGGGLVQAGGSLRLSCAASGSIFVYNAMGWYRQAPRKETEMVAAITSTGRTYYADSVKGRFTISRDNAKNTVYLKMNSLKPEDTGVYYCAATYVWSTLQYKTWQKLTHYGYWGQGTQVTVSS = high polyreactivity
• QVQLVESGGGLVQAGGSLRLSCAASGSLFGYNAIGRYRQARGKERELVAAITGSGGSTYYADSVKGRFTLSRDNAKNTVYFQMNSLKPEDTAVYYCADDLFGGPLGYWDYDYWGQGTQVTVSS = low polyreactivity

* * *

assay: yeast display, Sf9 membrane polyspecificity reagent, FACS + sequencing; frameworks hold sequencing errors
RECORDED_ENDPOINT: polyreactivity (PSR sort gate)

- QVQLVESGGGLVQAGGSLRLSCAASGSTIGANAMGWSRQAPGKERELVAAISLSGGTSYADSVKGRFTISRDNAKNTVYLQMNSLKPEDTAVYYCAAPGRGWFDWYAHYYWGQGTQVTVSS: low polyreactivity
- QVQLVESGGGLVQAGGSLRLSCAASGLTFSPYAMGWSRQAPGKERELVATITIGGSTKYADSVKGRFTISRDNAKNTVYLQMNSLKPEDSAVYYCAVRSGYVTRSYEYWGQGTQVTVSS: low polyreactivity
- QVQLVESGGGLVQAGGSLRLSCAASGFIFYYYAMGWYRQAPGKERELVAGIDKTGGSTYYADSVKGRFTISRDNAKNTVYFQMNSLKPEDTAVYYCAAGYFFPRLRFRNYAYVYWGQGTQVTVSS: high polyreactivity
- QVQLVESGGGLVQAGGSLRLSCAASGRILPGYALGWYRQAPGKERELVAAIRGNGDSTYYADSVKGRFTISRDNAKNTVYLQMNSLKPEDTAVYYCAARRVSTIPRDSYRGRKYGYWGQGTQVTVSS: low polyreactivity
- QVQLVESGGGLVQAGGSLRLSCAASGRTIVSNAMGWYRQAPGKERELVAAITRGSRTYYADSVKGRFTISRDNAKNTVYLQMNILKPEDTAVYYCAAYRDYGSYGSWGQGTQVTVSS: high polyreactivity

* * *

experiment: yeast display, Sf9 membrane polyspecificity reagent, FACS + sequencing; frameworks hold sequencing errors
RECORDED_ENDPOINT: polyreactivity (PSR sort gate)

- QVQLVESGGGLVQAGGSLRLSCAASGSIFNYNAMGWYRQAPGKERELVAAISWSGGSTYYADSVKGRFTISRDNAKNTVYLQMNSLKPEDTAVYYCAVATGLLYKSHGYWGQGTQVTVSS: low polyreactivity
- QVQLVESGGGLVQAGGSLRLSCAASGFIFRYYVMGWYRQAPGKERELVAAITGSGGSTYYADSVKGRFTISRDNAKNTVYLQMNSLKPEDTAVYYCAARVWPIVQNYYWGQGTQVTVSS: high polyreactivity
- QDQLVESGVGLVQAGGSLRLSCAASGFTFTRNAMGWYRQAPGKEREFVAAITRSGGSTYYADSVKGRFTISRDNAKNTVYLQMNSLKPEDTAVYYCAAEVSSFLYTPSYSTDDYWGQGTQVTVSS: high polyreactivity
- QVQLVESGGGLVQAGGSLRLSCAASGRTCYNTMGWYRQAPGKERELVAAISRGGITNYADSVKGRFTISRDSAKKTGYLQMNRLKPEDTAVYYCNAEPKRYYYYYKFDYWGQGTQVTVSS: high polyreactivity
- QVQLVESGGGLVQAGGSLRLRCAASGRTFGRYAMGWYRQAPGKERELVAAISTSGGSTFYADSVKGRITISRDNAKNTVYLLMNSLKPEDTAVYYCAADYRRFWGRYGYWGQGTQVTVSS: high polyreactivity
- QVQLVESGGGLVQAGGSLRLSCAASGYISDTNAMGWYRQAPGKEREFVAVISSSVGSTYYADSVKGRFTISRDNAKNTVYLQMNSLKPEDTAVYYCNAEFNTVFLYWSLDSVRGYDYWGQGTQVTVSS: high polyreactivity
- QDQLVDSGGVLVQAGGSLRLTCAASGSTFARNAMGWYRQAPGKERELVAAISSGGTTNYADSVKARFTISRDNAKNTVYLQMNSLKPEDTAVYYCNAGFRNVLTSGYLYDYWGQGTQVTVSS: low polyreactivity
- QVQLVESGGGLVQAGGSLRLSCAASGFIFTWYAMGWYRQAPGKEREFVAAITSRGTSTYYADSVKGRFTISRDNAKNTVYLQMNSLKPEDTAVYYCAARASYTRRHVGRPYDYWGQGTQVTVSS: high polyreactivity
- QVQLVESGGGLVQAGGSLRLSCAASGRIFFYNTMGWYRQAPGKERELVATISWSGASTYYADSVKGRFTISRDNAKNTVYLQMNSLKPEDTAVDYCAAVTRYTGFDYWGQGTQVTVSS: high polyreactivity
- QVQLVESGGGLVQAGGSLRLSCAASGSTRRYVMGWYRQAPWKERELVAAISYSGGSTYYADSVKGRFTISRDNAKNTVYLQMNSLKPEDTAVYYCAADGYSGQYGGHMGYWGQGTQVTVSS: high polyreactivity
- QVQLVESGGGLVQAGGSLRLSCAASGRIFWYYAMGWYRQAPGKERELVAAISRSGGSTYYADSVKGRFTISRDNAKNTVYLQMNSLKPEDTAVYYCAAGARAFDDDSWGQGTQVTVSS: low polyreactivity

* * *

assay: yeast display, Sf9 membrane polyspecificity reagent, FACS + sequencing; frameworks hold sequencing errors
RECORDED_ENDPOINT: polyreactivity (PSR sort gate)

* QVQLEESGGGLVQAGGSLRLSCAASGFIVYYYAMGWYRQAPGKERELVAAISSGDRTYYADSVKGRFTISRDNAKNTVYLQMNSLKREDTAVYYCNALSRNTQLYDYWGQGTQVTVSS | high polyreactivity
* QVQLVESGGGLVQAGGSLRLSCAASGSIIGVNAMGWYRQAPGKERELVAAISSTGGSTYYADSVKGRFTLSRDNAKNTVYLQMNSLKPEDTAVYSCNTDYSKSIGDGYAGFDYWGQGTQVTVSS | low polyreactivity
* QVQLVESGGGLVQAGGSLRLSCAASGSIFHNYDMGCYRQAPGKERELVADISRGGDTNYADSVKGRFTISRDNAKNTVYLQMNSLKPEDTAVYYCSADSADPTEYDYWGQGTQVTVSS | low polyreactivity
* QVQLVESGGRLVQAGGRLRLSSAATGLIFYANAMGWYRQAPGKQREFVADISNSGGSTYYADSVKGRFTISRDNAKNTVYLQMNSLKPEDTAVYYCNRVAYKRGYGVRYGGDYDYSGQGTQVTVSS | low polyreactivity
* QVQLVESGGGLVQAGGSLRLSCAASGSIFADYVMGWYRQAPGKERELVAAISRGGGRTYYADSVKGRFTISRDNAKNTVYLQMNSLKPEDTAVYYCAARGYPTNYDPGYTYDYWGQGTQVTVSS | high polyreactivity
